system: SK-MEL-5; experiment: NCI tumour cell line growth inhibition, 48 h
The source made the active and inactive calls. Cut-off read from the data, not from the text of the source: active = GI50 up to about 1.1 µM and inactive = higher.
Permitted responses: active, inactive

Example entries begin here.
CCCCCCCCCC1(N=[N+]=[N-])C(=O)c2ccccc2N(C)C1=O (stereo not given); inactive
CN1C(=O)C(=O)N2c3ccc(Cl)cc3C3(c4ccccc4)N=CC12O3 (stereo not given); inactive
CC1=CC(=O)[C@@H](O)[C@]2(C)[C@H]3[C@@]4(O)OC[C@]35[C@H]([C@@H](C)[C@H]4O)[C@@H](OC(=O)C(C)(C)CO)C(=O)O[C@@H]5C[C@@H]12; active
COc1ccc(OCC(=O)O)c2c1CCC(C)C2=O (stereo not given); inactive
COc1ccc(-c2ncn(C[Si](C)(C)C)c2-c2ccc(OC)cc2)cc1; inactive
CC(C(N)=O)N(C)C(=O)c1cc2ccccc2[n+](Cc2ccccc2)c1 (stereo not given); inactive
NC(=O)c1csc(C2O[C@@H](COP(=O)(O)OP(=O)(O)OC[C@H]3OC(n4cnc5c(N)ncnc54)[C@H](O)[C@@H]3O)[C@H](O)[C@@H]2O)n1 (stereo not given in full); inactive
Brc1ccc(N2C[N+](c3ccc(Br)cc3)=NC(c3ccccc3)=N2)cc1.[O-][Cl+3]([O-])([O-])[O-]; inactive

// query For `CN(C)CCNC(=O)c1ccc(NCCCN(C)CCCNc2ccc(C(=O)NCCN(C)C)c3nc4ccccc4c(O)c23)c2c(O)c3ccccc3nc12` , which call appears in the assay record?
// result active

// query # iterate: `N#Cc1ccc(/N=C(/NCC(=O)O)Nc2ccc3ccccc3c2)cc1`
// result inactive

// query Try the molecule `COc1ccc(-c2c(C#N)c(S)n(NS(=O)(=O)c3ccc(C)cc3)c(=O)c2C#N)cc1`
// result inactive

// query Same again, this time with CN(Cc1cnc2nc(N)nc(N)c2n1)c1ccc(C(=O)N[C@@H](CCC(=O)O)C(=O)O)cc1 [METHOTREXATE]
// result active

// query What do you get for Oc1ccc(/C=N/CC2CCCN3CCCCC23)cc1 (stereo not given) ?
// result inactive

// query Thanks! And Cc1cc2nc3n(c2cc1C)C(c1c(F)cccc1F)SC3 (stereo not given) ?
// result inactive

// query And what about the molecule `CC(=O)NNc1nc(C)c(C(=O)/C=C/c2ccc(Cl)c(Cl)c2)s1` ?
// result inactive

// query Another molecule: CN1C2(c3ccccc3)c3c(-c4ccccc4)sc(-c4ccccc4)c3C1(c1ccccc1)C1C(=O)N(c3ccccc3)C(=O)C12 (stereo not given)
// result inactive

// query `CO[C@H]1[C@@H](O)[C@H](O[C@@H]2C[C@H]3CC[C@@H]4[C@H](CC[C@]5(C)[C@@H](C6=CC(=O)OC6)CC[C@]45O)[C@@]3(C)[C@H](OC(C)=O)C2)O[C@@H](C)[C@H]1O` ?
// result active
